Reported Palpha values follow for various compounds
- System: Muscarinic acetylcholine receptor M2 (Cavia porcellus)
- measurementDescription: Palpha towards Muscarinic acetylcholine receptor M2 in guinea pig using [3H]-AF-DX 384 as a radioligand
measuredParameter: Palpha

[
  {
    "testSmiles": "CCC[N+](C)(C)CCCN1C(=O)c2ccccc2C1=O",
    "targetSystem": "Muscarinic acetylcholine receptor M2 (Cavia porcellus)",
    "inequalitySign": "<",
    "assayResult": -2
  },
  {
    "testSmiles": "CC[N+](C)(C)CCCN1C(=O)c2ccccc2C1=O",
    "targetSystem": "Muscarinic acetylcholine receptor M2 (Cavia porcellus)",
    "inequalitySign": "<",
    "assayResult": -2
  },
  {
    "testSmiles": "C[N+](C)(C)CCCN1C(=O)c2ccccc2C1=O",
    "targetSystem": "Muscarinic acetylcholine receptor M2 (Cavia porcellus)",
    "inequalitySign": "<",
    "assayResult": -2
  },
  {
    "testSmiles": "CCCCCC[N+](C)(C)CCCN1C(=O)c2ccccc2C1=O",
    "targetSystem": "Muscarinic acetylcholine receptor M2 (Cavia porcellus)",
    "inequalitySign": "=",
    "assayResult": -1.35
  },
  {
    "testSmiles": "C[N+](C)(CCCCCC[N+](C)(C)CCCN1C(=O)c2ccccc2C1=O)CCCN1C(=O)CCC1=O",
    "targetSystem": "Muscarinic acetylcholine receptor M2 (Cavia porcellus)",
    "inequalitySign": "=",
    "assayResult": -1.56
  }
]

###

- Test system: Muscarinic acetylcholine receptor M2 (Cavia porcellus)
- measurementDescription: Emax dissociation towards Muscarinic acetylcholine receptor M2 in guinea pig using [3H]AF-DX 384 as a radioligand
Note to self: values exactly at 70% are y. So Emax,diss at or above 70% is y, below is n.

[
  {
    "testSmiles": "CCC[N+](C)(C)CCCN1C(=O)c2ccccc2C1=O",
    "category": "y"
  },
  {
    "testSmiles": "CC[N+](C)(C)CCCN1C(=O)c2ccccc2C1=O",
    "category": "n"
  },
  {
    "testSmiles": "C[N+](C)(C)CCCN1C(=O)c2ccccc2C1=O",
    "category": "n"
  },
  {
    "testSmiles": "CCCCCC[N+](C)(C)CCCN1C(=O)c2ccccc2C1=O",
    "category": "y"
  }
]

###

- Test system: Muscarinic acetylcholine receptor M2 (Cavia porcellus)
- measurementDescription: Binding affinity towards Muscarinic acetylcholine receptor M2 in guinea pig using [3H]-NMS as a radioligand
# pKA listing for each entry below
measuredParameter: pKA

[
  {
    "testSmiles": "CC[N+](C)(C)CCCN1C(=O)c2ccccc2C1=O",
    "measuredParameter": "pKA",
    "assayResult": 4.12
  },
  {
    "testSmiles": "CCC[N+](C)(C)CCCN1C(=O)c2ccccc2C1=O",
    "measuredParameter": "pKA",
    "assayResult": 3.55
  },
  {
    "testSmiles": "C[N+](C)(CCCCCC[N+](C)(C)CCCN1C(=O)c2ccccc2C1=O)CCCN1C(=O)CCC1=O",
    "measuredParameter": "pKA",
    "assayResult": 5.24
  },
  {
    "testSmiles": "CCCCCC[N+](C)(C)CCCN1C(=O)c2ccccc2C1=O",
    "measuredParameter": "pKA",
    "assayResult": 5.08
  },
  {
    "testSmiles": "C[N+](C)(C)CCCN1C(=O)c2ccccc2C1=O",
    "measuredParameter": "pKA",
    "assayResult": 3.95
  }
]
